B1: SPDEF (parent)
chain: FQELAGKELCAMSEEQFRQRSPLG

variants of: B1; assay: protein stability index of a GFP-peptide fusion (GPS, HEK-293T) (PSI 1-6); higher = more stable; settings: c terminus: a fixed tail appended;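 note: lentivirally expressed fusions sorted by FACS into six bins by GFP to DsRed ratio, PSI derived from sequencing read proportions per bin multiplied by bin number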
I'd appreciate it if you could supply protein stability index values for the items below.
Form: value (number only, do not type unit).

INPUT: Using the record for A11F , report its protein stability index.
OUTPUT: 2.5

INPUT: // query protein stability index value for entry G6H
OUTPUT: 2.73

INPUT: Reported protein stability index for Q19W : what is it?
OUTPUT: 1.59

INPUT: Quick check: protein stability index of L4P ?
OUTPUT: 3.99

INPUT: // lookup protein stability index for M12C
OUTPUT: 2.39

INPUT: Endpoint output: protein stability index of S13V . Value?
OUTPUT: 3.05

INPUT: Entry S13K : reported protein stability index = ?
OUTPUT: 2.58

INPUT: Form field: reported protein stability index of Q16L
OUTPUT: 2.2

INPUT: Reported protein stability index, variant A5Y : ____
OUTPUT: 2.6

INPUT: Reported protein stability index, variant L4Y : ____
OUTPUT: 2.61

INPUT: Name the reported protein stability index value associated with the variant R20W
OUTPUT: 2.52

INPUT: Any idea what its protein stability index is? The variant is G24K
OUTPUT: 3.44

INPUT: // query protein stability index value for entry R18W
OUTPUT: 2

INPUT: Fill in: protein stability index of E8H is ___
OUTPUT: 1.77

INPUT: Which protein stability index reading was recorded for the variant Q16Y ?
OUTPUT: 2.16

INPUT: Endpoint output: protein stability index of A5M . Value?
OUTPUT: 2.58

INPUT: Which measured protein stability index value corresponds to F1N ?
OUTPUT: 4.72

INPUT: Which protein stability index value belongs to R18S ?
OUTPUT: 2.82

INPUT: Need protein stability index, item L4R
OUTPUT: 3

INPUT: Give its protein stability index value. Item: G24Q
OUTPUT: 2.44

INPUT: Consider the variant shown here: L23D What is its recorded protein stability index?
OUTPUT: 2.8

INPUT: Please give the measured protein stability index for this variant: R20T
OUTPUT: 2.91
